Where do these numbers come from? They come from patent US20150087577A1.

target: human CXCR4 (human, UniProt P61073 1-352); test: cell-based or functional assay
Sequence (P61073 whole entry): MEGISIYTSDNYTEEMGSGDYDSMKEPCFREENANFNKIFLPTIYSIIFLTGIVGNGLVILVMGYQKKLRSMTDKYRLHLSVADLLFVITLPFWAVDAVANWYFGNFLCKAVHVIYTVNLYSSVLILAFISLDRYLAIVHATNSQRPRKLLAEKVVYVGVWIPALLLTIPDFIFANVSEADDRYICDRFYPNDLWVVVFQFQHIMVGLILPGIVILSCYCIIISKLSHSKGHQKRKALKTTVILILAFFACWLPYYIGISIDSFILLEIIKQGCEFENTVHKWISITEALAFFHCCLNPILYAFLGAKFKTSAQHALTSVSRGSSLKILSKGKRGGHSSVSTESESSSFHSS
Bridges are numbered along the chain shown (N, C = ends). [ ]: non-standard residue; d: D form. 2Nal = N[C@@H](Cc1ccc2ccccc2c1)C(=O)O; Cit = NC(=O)NCCC[C@H](N)C(=O)O
// values below are reported IC50 (nM) Ca2+ assay (method 2)
State the value with its unit after it.

Examples with their reported IC50 (nM) Ca2+ assay (method 2) follow.
binder	IC50 (nM) Ca2+ assay (method 2)
cyclo(YR[Cit]CRG[dP]RR[2Nal]CYMK[dP]P) (disulfide 4-11; SMILES CSCC[C@@H]1NC(=O)[C@H](Cc2ccc(O)cc2)NC(=O)[C@@H]2CSSC[C@H](NC(=O)[C@H](CCCNC(N)=O)NC(=O)[C@H](CCCNC(=N)N)NC(=O)[C@H](Cc3ccc(O)cc3)NC(=O)[C@@H]3CCCN3C(=O)[C@H]3CCCN3C(=O)[C@H](CCCCN)NC1=O)C(=O)N[C@@H](CCCNC(=N)N)C(=O)NCC(=O)N1CCC[C@@H]1C(=O)N[C@@H](CCCNC(=N)N)C(=O)N[C@@H](CCCNC(=N)N)C(=O)N[C@@H](Cc1ccc3ccccc3c1)C(=O)N2) [Example 83]	3.7 nM
cyclo(DR[Cit]CRG[dP]RR[2Nal]CYQK[dP]P) (disulfide 4-11; SMILES N=C(N)NCCC[C@@H]1NC(=O)[C@@H]2CSSC[C@H](NC(=O)[C@H](Cc3ccc4ccccc4c3)NC(=O)[C@H](CCCNC(=N)N)NC(=O)[C@H](CCCNC(=N)N)NC(=O)[C@H]3CCCN3C(=O)CNC1=O)C(=O)N[C@@H](Cc1ccc(O)cc1)C(=O)N[C@@H](CCC(N)=O)C(=O)N[C@@H](CCCCN)C(=O)N1CCC[C@@H]1C(=O)N1CCC[C@H]1C(=O)N[C@@H](CC(=O)O)C(=O)N[C@@H](CCCNC(=N)N)C(=O)N[C@@H](CCCNC(N)=O)C(=O)N2) [Example 88]	2.5 nM
cyclo(YRPCRG[dP]RR[2Nal]CYQK[dP]P) (disulfide 4-11; SMILES N=C(N)NCCC[C@@H]1NC(=O)[C@@H]2CSSC[C@H](NC(=O)[C@H](Cc3ccc4ccccc4c3)NC(=O)[C@H](CCCNC(=N)N)NC(=O)[C@H](CCCNC(=N)N)NC(=O)[C@H]3CCCN3C(=O)CNC1=O)C(=O)N[C@@H](Cc1ccc(O)cc1)C(=O)N[C@@H](CCC(N)=O)C(=O)N[C@@H](CCCCN)C(=O)N1CCC[C@@H]1C(=O)N1CCC[C@H]1C(=O)N[C@@H](Cc1ccc(O)cc1)C(=O)N[C@@H](CCCNC(=N)N)C(=O)N1CCC[C@H]1C(=O)N2) [Example 74]	19.5 nM

Now look at this one.
**Q:** Any idea what its IC50 (nM) Ca2+ assay (method 2) is? The binder is cyclo(YR[Cit]CRG[dP]RR[2Nal]CYSK[dP]P) (disulfide 4-11; SMILES N=C(N)NCCC[C@@H]1NC(=O)[C@@H]2CSSC[C@H](NC(=O)[C@H](Cc3ccc4ccccc4c3)NC(=O)[C@H](CCCNC(=N)N)NC(=O)[C@H](CCCNC(=N)N)NC(=O)[C@H]3CCCN3C(=O)CNC1=O)C(=O)N[C@@H](Cc1ccc(O)cc1)C(=O)N[C@@H](CO)C(=O)N[C@@H](CCCCN)C(=O)N1CCC[C@@H]1C(=O)N1CCC[C@H]1C(=O)N[C@@H](Cc1ccc(O)cc1)C(=O)N[C@@H](CCCNC(=N)N)C(=O)N[C@@H](CCCNC(N)=O)C(=O)N2) [Example 81]
**A:** 4.9 nM
